Hello, the source for this data is patent US20090170845A1, in case you need it.

Tested on: diabetic rats
Experiment: Tactile allodynia (von Frey) in diabetic rats (DN)
Format: in vivo, rat
Settings: sc, acute single
I'd appreciate it if you could supply DN, effective dose values for the items below.
Number in mg/kg, nothing else.

# DN, effective dose lookup, item O=S(=O)([N-][Na+])c1nn2cc(-c3ccc(-c4cccc(C(F)(F)F)c4)cc3)nc2s1 [Compound 150] 10

# DN, effective dose lookup, item O=S(=O)([N-][Na+])c1nn2cc(-c3cc(C(F)(F)F)ccc3Cl)nc2s1 [Compound 160] 10

---

Tested on: diabetic rats
Experiment: Tactile allodynia (von Frey) in diabetic rats (DN)
Format: in vivo, rat
Settings: sc, acute single
Parameter measured: DN, effective dose

# DN, effective dose lookup, item O=S(=O)([N-][Na+])c1nn2cc(-c3ccc4c(c3)OCCCO4)nc2s1 [Compound 155] ≤ 10 mg/kg

# DN, effective dose lookup, item COCCOCCOc1ccc(-c2cn3nc(S(=O)(=O)[N-][Na+])sc3n2)cc1 [Compound 157] <10 mg/kg

# DN, effective dose lookup, item CC(C)(C)c1ccc(-c2cn3nc(S(=O)(=O)[N-][Na+])sc3n2)cc1 [Compound 158] ≤ 10 mg/kg
